// provenance: patent US20210301026A1

# system_tested: T1, monomeric human CSF1R ectodomain protein (human, UniProt P07333 20-517)
# T1 construct: also called biotinylated monomeric human CSF1R
# protocol_notes: SPR Biacore, IgG captured, monomeric CSF1R analyte
Property: koff; scope: individual binders
Please reply with the bare figure in s⁻¹ and do not write the unit itself.

Example cases with answers are listed next.
Prompt: Which koff value is on record for MH20 (antibody, human IgG4, V domains shown, Deimmunized MH5 derivative, human IgG4(S228P)/Ckappa IgG) VH: QVQLVQSGAEVKKPGSSVKVSCKASGYTFSSSYMIWVRQAPGQGLEWMGDINPYNGGANYAQKFQGRVTITADESTSTAYMELSSLRSEDTAVYYCAREGPYFSNLYVMDYWGQGTLVTVSS VL: EIVLTQSPATLSLSPGERATLSCRASQSVSYEGENYLNWYQQKPGQAPRSLIYAASDRATGIPARFSGSGSGTDFTLTISSPEPEDFAVYYCQLSNEDLLTFGGGTKVEIK ?
Completion: 0.00177

Prompt: Now the same for humanized anti-CSF1R antibody 0301 (hu0301) (antibody, human IgG4, V domains shown, also called mAb-1) VH: QVQLVQSGAEVKKPGSSVKVSCKASGYTFTDNYMIWVRQAPGQGLEWMGDINPYNGGTTFNQKFKGRVTITADKSTSTAYMELSSLRSEDTAVYYCARESPYFSNLYVMDYWGQGTLVTVSS VL: EIVLTQSPATLSLSPGERATLSCKASQSVDYDGDNYMNWYQQKPGQAPRLLIYAASNLESGIPARFSGSGSGTDFTLTISSLEPEDFAVYYCHLSNEDLSTFGGGTKVEIK
Completion: 0.00047

Continuing:
Prompt: Which koff value is on record for MH32 (antibody, human IgG4, V domains shown, Deimmunized MH5 derivative, human IgG4(S228P)/Ckappa IgG; also called MN32) VH: QVQLVQSGAEVKKPGSSVKVSCKASGYTFSSAYMIWVRQAPGQGLEWMGDINPYNGGANYAQKFQGRVTITADESTSTAYMELSSLRSEDTAVYYCAREGPYFSNLYVMDYWGRGTLVTVSS VL: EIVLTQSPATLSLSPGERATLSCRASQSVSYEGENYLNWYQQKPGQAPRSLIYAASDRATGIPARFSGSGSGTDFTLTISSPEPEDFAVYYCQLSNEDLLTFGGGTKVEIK ?
Completion: 0.00127
